Tested on: Plasmodium falciparum
Assay Remarks: microbe, parasite or virus in culture
Condition Parameters: Dd2, 72 h
Description: Antimalarial activity against erythrocytic stage of chloroquine-resistant Plasmodium falciparum Dd2 assessed as inhibition of growth incubated for 72 hrs by SYBR green I based assay
Test Readout: pIC50
Bear in mind: pIC50 is minus log10 of a mol/L concentration; give just that figure.

Solved cases below.
| Compound | pIC50 |
| --- | --- |
| O=C(NO)c1cnc(N[C@H]2CC[C@@H](NCc3ccccc3)CC2)nc1 | 7.26 |
| Cn1cc(CN[C@H]2CC[C@@H](Nc3ncc(C(=O)NO)cn3)CC2)c2cccnc21 | 7.27 |
| Cn1cc(CN[C@H]2CC[C@@H](Nc3ncc(C(=O)NO)cn3)CC2)c2ccc(Br)cc21 | 7.72 |
| O=C(NO)c1cnc(N[C@H]2CC[C@@H](NCc3ccncc3)CC2)nc1 | 6.73 |
| O=C(NO)c1cnc(N[C@H]2CC[C@@H](NCc3cccnc3)CC2)nc1 | 7.25 |

Kindly consider the entry below.
Test system Plasmodium falciparum; read-out pIC50; what value for `O=C(NO)c1cnc(N[C@H]2CC[C@@H](NCc3cccc4ccccc34)CC2)nc1` ?
7.40

---

Assay Remarks: Apparent volume of distribution during terminal phase in female Balb/c mouse at 5 mg/kg, ip measured after 24 hrs by LC-MS/MS analysis
Format: ADME, organism-based
Condition Parameters: in vivo, read-out: Vz/F
Test Readout: Vd/F (L/kg)
Answer with a number only, understood to be in L/kg.

I'd like to know its Vd/F. The compound in question is `Cc1ccc2c(CN[C@H]3CC[C@@H](Nc4ncc(C(=O)NO)cn4)CC3)cn(C)c2c1.Cl`
16.1

---

Assay Remarks: Selectivity index, ratio of IC50 for HEK293T cells to IC50 for erythrocytic stage of Plasmodium falciparum 3D7
Format: toxicity, cell-based
Condition Parameters: human, read-out: Ratio IC50
Binary classification by selectivity ratio, with 100 as an inclusive lower bound for satisfied; all other cases are not satisfied.

The examples below pair each entry with its known result.
| Structure Smiles | Label Value |
| --- | --- |
| O=C(NO)c1cnc(N[C@H]2CC[C@@H](NCc3ccc(-c4ccccc4)cc3)CC2)nc1 | not satisfied |
| O=C(NO)c1cnc(N[C@H]2CC[C@@H](NCc3cc4ccccc4s3)CC2)nc1 | satisfied |
| O=C(NO)c1cnc(N[C@H]2CC[C@@H](NCc3cc4ccccc4c4ccccc34)CC2)nc1 | satisfied |
| O=C(NO)c1cnc(N[C@H]2CC[C@@H](NCc3cccc4cccnc34)CC2)nc1 | satisfied |
| Cc1ccc2c(CN[C@H]3CC[C@@H](Nc4ncc(C(=O)NO)cn4)CC3)cn(C)c2c1.Cl | satisfied |
| O=C(NO)c1cnc(N[C@H]2CC[C@@H](NCC3CCCCC3)CC2)nc1 | not satisfied |
| O=C(NO)c1cnc(N[C@H]2CC[C@@H](NCc3cccc4ccccc34)CC2)nc1 | not satisfied |
| Cn1nc(CN[C@H]2CC[C@@H](Nc3ncc(C(=O)NO)cn3)CC2)c2ccccc21 | satisfied |
| O=C(NO)c1cnc(N[C@H]2CC[C@@H](NCc3csc4ccccc34)CC2)nc1 | not satisfied |
| Cn1c(CN[C@H]2CC[C@@H](Nc3ncc(C(=O)NO)cn3)CC2)nc2ccccc21 | satisfied |

Does `O=C(NO)c1cnc(N[C@H]2CC[C@@H](NCc3ccc4cc(F)ccc4n3)CC2)nc1` have a reported selectivity ratio of at least 100?
satisfied

Does `O=C(NO)c1cnc(N[C@H]2CC[C@@H](NCc3ccccc3)CC2)nc1` have a reported selectivity ratio of at least 100?
not satisfied

---

Assay Remarks: Selectivity index, ratio of IC50 for HEK293T cells to IC50 for erythrocytic stage of Plasmodium falciparum 3D7
Format: toxicity, cell-based
Condition Parameters: human, read-out: Ratio IC50
Test Readout: selectivity ratio

I'd like to know its selectivity ratio. The compound in question is `O=C(NO)c1cnc(N[C@H]2CC[C@@H](NCc3ccncc3)CC2)nc1`
> 64

---

Assay Remarks: Half-life in female Balb/c mouse at 5 mg/kg, ip measured after 24 hrs by LC-MS/MS analysis
Assay type: ADME, organism-based
Condition Parameters: in vivo
Test Readout: half-life (h)
Answer with a number only, understood to be in h.

I'd like to know its half-life. The compound in question is `Cc1ccc2c(CN[C@H]3CC[C@@H](Nc4ncc(C(=O)NO)cn4)CC3)cn(C)c2c1.Cl`
1.9

---

Experimental System: Histone deacetylase 2 (Homo sapiens, UniProt Q92769)
Sequence (Q92769 whole entry): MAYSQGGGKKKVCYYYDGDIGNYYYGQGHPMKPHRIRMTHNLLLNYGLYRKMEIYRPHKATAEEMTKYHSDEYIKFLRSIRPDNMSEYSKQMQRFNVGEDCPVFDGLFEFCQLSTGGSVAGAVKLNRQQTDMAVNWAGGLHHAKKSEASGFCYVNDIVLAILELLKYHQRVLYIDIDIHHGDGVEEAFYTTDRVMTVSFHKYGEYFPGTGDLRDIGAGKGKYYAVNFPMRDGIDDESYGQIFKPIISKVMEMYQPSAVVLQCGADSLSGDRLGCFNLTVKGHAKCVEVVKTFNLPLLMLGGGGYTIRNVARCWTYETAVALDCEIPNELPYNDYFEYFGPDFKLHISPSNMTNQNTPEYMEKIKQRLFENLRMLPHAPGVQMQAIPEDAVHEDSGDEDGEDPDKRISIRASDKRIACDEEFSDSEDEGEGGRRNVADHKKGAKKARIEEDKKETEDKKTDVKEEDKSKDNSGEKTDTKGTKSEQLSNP
Assay Remarks: Inhibition of recombinant human HDAC2 using Ac-peptide as substrate preincubated for 15 mins followed by substrate addition and measured after 60 mins
Test Readout: IC50 (nM)
Answer with a number only, understood to be in nM.

| Structure Smiles | Experimental System | Test Readout | Reported Result |
| --- | --- | --- | --- |
| Cc1ccc2c(CN[C@H]3CC[C@@H](Nc4ncc(C(=O)NO)cn4)CC3)cn(C)c2c1.Cl | Histone deacetylase 2 (Homo sapiens, UniProt Q92769) | IC50 | 11 |

I'd like to know its IC50. The compound in question is `COc1ccc2c(CN[C@H]3CC[C@@H](Nc4ncc(C(=O)NO)cn4)CC3)cn(C)c2c1.Cl`
14

---

List of selectivity ratio values.
Assay Remarks: Selectivity index, ratio of IC50 for human HepG2 cells to IC50 for erythrocytic stage of Plasmodium falciparum 3D7
Assay type: toxicity, cell-based
Condition Parameters: read-out: Ratio IC50
Note: the reply should be a number with no unit written.

I'd like to know its selectivity ratio. The compound in question is `O=C(NO)c1cnc(N[C@H]2CC[C@@H](NCc3ccc4ncccc4c3)CC2)nc1`
143

I'd like to know its selectivity ratio. The compound in question is `O=C(NO)c1cnc(N[C@H]2CC[C@@H](NCc3cccc4ccccc34)CC2)nc1`
19

---

System: Plasmodium falciparum
Assay Remarks: microbe, parasite or virus in culture
Condition Parameters: Dd2, 72 h
List of IC50 values.
Answer with a number only, understood to be in nM.

| Structure Smiles | Unit String | IC50 |
| --- | --- | --- |
| O=C(NO)c1cnc(N[C@H]2CC[C@@H](NCc3cc4ccccc4s3)CC2)nc1 | nM | 26.4 |
| O=C(NO)c1cnc(N[C@H]2CC[C@@H](NCC3CCCCC3)CC2)nc1 | nM | 53.4 |
| O=C(NO)c1cnc(N[C@H]2CC[C@@H](NCc3cccc4ccncc34)CC2)nc1 | nM | 62.1 |
| Cc1ccc2c(CN[C@H]3CC[C@@H](Nc4ncc(C(=O)NO)cn4)CC3)cn(C)c2c1.Cl | nM | 19.4 |
| Cn1cc(CN[C@H]2CC[C@@H](Nc3ncc(C(=O)NO)cn3)CC2)c2ccc(Cl)cc21 | nM | 18 |
| Cn1cc(CN[C@H]2CC[C@@H](Nc3ncc(C(=O)NO)cn3)CC2)c2ncccc21 | nM | 38.3 |

I'd like to know its IC50. The molecule in question is `Cn1cc(CN[C@H]2CC[C@@H](Nc3ncc(C(=O)NO)cn3)CC2)c2ccccc21`
11.9

I'd like to know its IC50. The molecule in question is `Cn1nc(CN[C@H]2CC[C@@H](Nc3ncc(C(=O)NO)cn3)CC2)c2ccccc21`
31.2

I'd like to know its IC50. The molecule in question is `O=C(NO)c1cnc(N[C@H]2CC[C@@H](NCc3ccccn3)CC2)nc1`
210

---

Experimental System: Histone deacetylase 8 (Homo sapiens, UniProt Q9BY41)
Sequence (Q9BY41 whole entry): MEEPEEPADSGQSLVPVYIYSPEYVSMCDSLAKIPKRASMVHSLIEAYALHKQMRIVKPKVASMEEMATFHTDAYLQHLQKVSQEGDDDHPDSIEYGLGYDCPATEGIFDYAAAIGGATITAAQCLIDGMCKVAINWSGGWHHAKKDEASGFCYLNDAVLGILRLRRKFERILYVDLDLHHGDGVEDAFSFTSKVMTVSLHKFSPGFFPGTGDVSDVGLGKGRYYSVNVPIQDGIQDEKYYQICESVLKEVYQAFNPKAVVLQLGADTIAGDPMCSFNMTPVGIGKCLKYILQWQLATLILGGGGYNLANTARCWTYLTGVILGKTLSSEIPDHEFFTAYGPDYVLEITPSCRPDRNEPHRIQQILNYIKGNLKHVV
Assay Remarks: Inhibition of recombinant human HDAC8 using Ac-peptide as substrate preincubated for 15 mins followed by substrate addition for 240 mins and measured after 120 mins of trypsin addition
List of IC50 values.
Output should be the measured figure followed by the unit it is expressed in.

| Structure Smiles | IC50 |
| --- | --- |
| Cc1ccc2c(CN[C@H]3CC[C@@H](Nc4ncc(C(=O)NO)cn4)CC3)cn(C)c2c1.Cl | 43 nM |

Kindly consider the entry below.
I'd like to know its IC50. The compound in question is `COc1ccc2c(CN[C@H]3CC[C@@H](Nc4ncc(C(=O)NO)cn4)CC3)cn(C)c2c1.Cl`
30 nM

---

List of selectivity ratio values.
Assay Remarks: Selectivity index, ratio of IC50 for HEK293T cells to IC50 for erythrocytic stage of Plasmodium falciparum 3D7
Type: toxicity, cell-based
Condition Parameters: human, read-out: Ratio IC50
Note: the reply should be a number with no unit written.

I'd like to know its selectivity ratio. The compound in question is `Cn1cc(CN[C@H]2CC[C@@H](Nc3ncc(C(=O)NO)cn3)CC2)c2ncccc21`
27

I'd like to know its selectivity ratio. The compound in question is `O=C(NO)c1cnc(N[C@H]2CC[C@@H](NCc3cccc4ccncc34)CC2)nc1`
163

---

Assay Remarks: Cytotoxicity against human HepG2 cells assessed as inhibition of cell growth incubated for 72 hrs by CCK8 assay
Assay type: toxicity, cell-based
List of IC50 at 72 h values.
Answer with a number only, understood to be in µM.

Solved cases below.
| Structure Smiles | IC50 at 72 h [µM] |
| --- | --- |
| Cc1ccc2c(CN[C@H]3CC[C@@H](Nc4ncc(C(=O)NO)cn4)CC3)cn(C)c2c1.Cl | 5.29 |
| Cn1cc(CN[C@H]2CC[C@@H](Nc3ncc(C(=O)NO)cn3)CC2)c2ccc(Br)cc21 | 2.22 |
| O=C(NO)c1cnc(N[C@H]2CC[C@@H](NCC3CCCCC3)CC2)nc1 | 5.84 |

I'd like to know its IC50 at 72 h. The compound in question is `O=C(NO)c1cnc(N[C@H]2CC[C@@H](NCc3ccc4ccccc4n3)CC2)nc1`
2.43

I'd like to know its IC50 at 72 h. The compound in question is `O=C(NO)c1cnc(N[C@H]2CC[C@@H](NCc3ccc4ccc5cccc6ccc3c4c56)CC2)nc1`
2.13

I'd like to know its IC50 at 72 h. The compound in question is `Cn1nc(CN[C@H]2CC[C@@H](Nc3ncc(C(=O)NO)cn3)CC2)c2ccccc21`
5.79

I'd like to know its IC50 at 72 h. The compound in question is `O=C(NO)c1cnc(N[C@H]2CC[C@@H](NCc3ccc4ncccc4c3)CC2)nc1`
6.38

I'd like to know its IC50 at 72 h. The compound in question is `O=C(NO)c1cnc(N[C@H]2CC[C@@H](NCc3ccc4ccccc4c3)CC2)nc1`
1.13

I'd like to know its IC50 at 72 h. The compound in question is `O=C(NO)c1cnc(N[C@H]2CC[C@@H](NCc3cc4ccccc4c4ccccc34)CC2)nc1`
1.29

I'd like to know its IC50 at 72 h. The compound in question is `O=C(NO)c1cnc(N[C@H]2CC[C@@H](NCc3coc4ccccc34)CC2)nc1`
2.58

I'd like to know its IC50 at 72 h. The compound in question is `Cn1cc(CN[C@H]2CC[C@@H](Nc3ncc(C(=O)NO)cn3)CC2)c2ccccc21`
1.77

I'd like to know its IC50 at 72 h. The compound in question is `COc1ccc2c(CN[C@H]3CC[C@@H](Nc4ncc(C(=O)NO)cn4)CC3)cn(C)c2c1.Cl`
12.8

I'd like to know its IC50 at 72 h. The compound in question is `O=C(NO)c1cnc(N[C@H]2CC[C@@H](NCc3ccc4cc(F)ccc4n3)CC2)nc1`
3.62

I'd like to know its IC50 at 72 h. The compound in question is `O=C(NO)c1cnc(N[C@H]2CC[C@@H](NCc3cccc4ccccc34)CC2)nc1`
0.642

I'd like to know its IC50 at 72 h. The compound in question is `O=C(NO)c1cnc(N[C@H]2CC[C@@H](NCc3cccnc3)CC2)nc1`
4.58

I'd like to know its IC50 at 72 h. The compound in question is `Cn1cc(CN[C@H]2CC[C@@H](Nc3ncc(C(=O)NO)cn3)CC2)c2ccc(Cl)cc21`
2.5

I'd like to know its IC50 at 72 h. The compound in question is `O=C(NO)c1cnc(N[C@H]2CC[C@@H](NCc3c4ccccc4cc4ccccc34)CC2)nc1`
0.858

I'd like to know its IC50 at 72 h. The compound in question is `Cn1cc(CN[C@H]2CC[C@@H](Nc3ncc(C(=O)NO)cn3)CC2)c2ccc(F)cc21`
3.19
